# measured_on: HIV-1 protease (Human immunodeficiency virus type 1 group M subtype B, UniProt P04585)
# experimental_protocol: biochemical
# measurement_conditions: read-out: HIV-1 Protease % Inhib, dose 11.000 uM
Here, each record is paired with measured inhibition at 11 µM data.
Numbers only here, please. The scale is %.

Use the examples below as a reference point.
C=CCCC1CCCCc2c1oc(=O)c(C(c1ccccc1)C1CC1)c2O (stereo not drawn) | 82.4
O=c1oc2c(c(O)c1C(Cc1ccccc1)Cc1ccccc1)CCCCCC2 | 92.4
O=c1oc2c(c(O)c1C(C1CC1)C1CC1)CCCCCC2Cc1ccccc1 (stereo not drawn) | 88.3
O=c1oc2ccccc2c(O)c1C(CCO)c1ccccc1 (stereo not drawn) | 14.2
CC(C)(C)C(c1ccccc1)c1c(O)c2ccccc2oc1=O (stereo not drawn) | 73.7
COc1ccc2c(O)c(C(c3cccc(NC(=O)CCNC(=O)OC(C)(C)C)c3)C3CC3)c(=O)oc2c1 (stereo not drawn) | 114
CC(C)(C)OC(=O)NCCC(=O)Nc1cccc(C(c2c(O)c3ccccc3oc2=O)C2CC2)c1 (stereo not drawn) | 106
O=c1oc2c(c(O)c1C(c1ccccc1)C1CC1)CCCCCCC2 (stereo not drawn) | 114
COc1ccc2c(O)c(C(c3cccc(NC(=O)OCc4ccccc4)c3)C3CC3)c(=O)oc2c1 (stereo not drawn) | 58.9
CCC(c1ccccc1)c1c(O)c2c(oc1=O)C(CC1CC1)CCC2 (stereo not drawn) | 81.6

Problem: Item O=c1oc2c(c(O)c1C(C1CC1)C1CC1)CCCCCC2 with HIV-1 protease (Human immunodeficiency virus type 1 group M subtype B, UniProt P04585) - inhibition at 11 µM?
Result: 110

Problem: Item O=C(Nc1cccc(C(c2c(O)c3c(oc2=O)CCCCCC3)C2CC2)c1)OCc1ccccc1 (stereo not drawn) with HIV-1 protease (Human immunodeficiency virus type 1 group M subtype B, UniProt P04585) - inhibition at 11 µM?
Result: 97.7

Problem: Item O=c1oc2ccccc2c(O)c1C1CCN(Cc2ccccc2)c2ccccc21 (stereo not drawn) with HIV-1 protease (Human immunodeficiency virus type 1 group M subtype B, UniProt P04585) - inhibition at 11 µM?
Result: 74.3

Problem: Item CCC(c1ccccc1)c1c(O)c2c(oc1=O)C(Cc1ccccc1)CCCCC2 (stereo not drawn) with HIV-1 protease (Human immunodeficiency virus type 1 group M subtype B, UniProt P04585) - inhibition at 11 µM?
Result: 98

Problem: Item O=c1oc2c(c(O)c1C(c1ccccc1)C1CC1)CCCCC2CC1CC1 (stereo not drawn) with HIV-1 protease (Human immunodeficiency virus type 1 group M subtype B, UniProt P04585) - inhibition at 11 µM?
Result: 108

----------
Here, each record is paired with measured inhibition at 0.123 µM data.
# measured_on: HIV-1 protease (Human immunodeficiency virus type 1 group M subtype B, UniProt P04585)
# experimental_protocol: biochemical
# measurement_conditions: read-out: HIV-1 Protease % Inhib, dose 0.123 uM
Output should be the measured figure followed by the unit it is expressed in.

Use the examples below as a reference point.
O=c1oc2c(c(O)c1C(c1cccc(NS(=O)(=O)c3ccc(S(=O)(=O)c4ccccc4)s3)c1)C1CC1)CCCCCC2 (stereo not shown) | 78.5%
C[C@@H](NC(=O)OC(C)(C)C)C(=O)Nc1cccc(C(c2c(O)c3c(oc2=O)CCCCCC3)C2CC2)c1 (stereo partly shown) | 15.6%
Cc1cccc(S(=O)(=O)Nc2cccc(C(c3c(O)c4c(oc3=O)CCCCCC4)C3CC3)c2)c1 (stereo not shown) | 73.5%
CCCC1CCCCCc2c1oc(=O)c(C(c1ccccc1)C1CC1)c2O (stereo not shown) | 32.5%
O=c1oc2c(c(O)c1C(c1cccc(NS(=O)(=O)c3ccc(N=Nc4ccccc4)cc3)c1)C1CC1)CCCCCC2 (stereo not shown) | 46.5%

Problem: May I ask what inhibition at 0.123 µM has been recorded for CC(C)(C)OC(=O)NCCC(=O)Nc1cccc(C(c2c(O)c3c(oc2=O)CCCCCC3)C2CC2)c1 (stereo not shown) ?
Result: 68%

Problem: May I ask what inhibition at 0.123 µM has been recorded for O=c1oc2c(c(O)c1C(c1cccc(NS(=O)(=O)Cc3ccccc3)c1)C1CC1)CCCCCC2 (stereo not shown) ?
Result: 22.2%

Problem: May I ask what inhibition at 0.123 µM has been recorded for O=c1oc2c(c(O)c1C(c1cccc(NS(=O)(=O)c3cccc(N(CCO)CCO)c3)c1)C1CC1)CCCCCC2 (stereo not shown) [Example 355 (Second Title Compound)] ?
Result: 112%

Problem: May I ask what inhibition at 0.123 µM has been recorded for O=C(CCn1ccc2ccccc21)Nc1cccc(C(c2c(O)c3c(oc2=O)CCCCCC3)C2CC2)c1 (stereo not shown) ?
Result: 34%

Problem: May I ask what inhibition at 0.123 µM has been recorded for CC(C)CC(c1cccc(NS(=O)(=O)c2cccnc2)c1)c1c(O)c2c(oc1=O)CCCCCC2 (stereo not shown) ?
Result: 88.6%

Problem: May I ask what inhibition at 0.123 µM has been recorded for O=C(O)c1cccc(S(=O)(=O)Nc2cccc(C(c3c(O)c4c(oc3=O)CCCCCC4)C3CC3)c2)c1 (stereo not shown) ?
Result: 74.4%

Problem: May I ask what inhibition at 0.123 µM has been recorded for O=c1oc2c(c(O)c1C(c1cccc(NS(=O)(=O)c3cc(Br)c(Br)s3)c1)C1CC1)CCCCCC2 (stereo not shown) ?
Result: 67.4%

Problem: May I ask what inhibition at 0.123 µM has been recorded for COCCOCCOCCOc1ccc(S(=O)(=O)Nc2cccc(C(c3c(O)c4c(oc3=O)CCCCCC4)C3CC3)c2)cc1 (stereo not shown) ?
Result: 126%

Problem: May I ask what inhibition at 0.123 µM has been recorded for CC(C)CC(c1cccc(NS(=O)(=O)c2cn(C)cn2)c1)c1c(O)c2c(oc1=O)CCCCCC2 (stereo not shown) ?
Result: 94.2%

Problem: May I ask what inhibition at 0.123 µM has been recorded for CCCC(c1cccc(NS(=O)(=O)c2ccc(F)cc2)c1)c1c(O)c2c(oc1=O)CCCCCC2 (stereo not shown) ?
Result: 72.3%

Problem: May I ask what inhibition at 0.123 µM has been recorded for CS(=O)(=O)Nc1cccc(C(c2c(O)c3c(oc2=O)CCCCCC3)C2CC2)c1 (stereo not shown) ?
Result: 27.8%

Problem: May I ask what inhibition at 0.123 µM has been recorded for O=c1oc2c(c(O)c1C(c1cccc(NS(=O)(=O)c3cccc4nsnc34)c1)C1CC1)CCCCCC2 (stereo not shown) ?
Result: 77.8%

Problem: May I ask what inhibition at 0.123 µM has been recorded for O=c1oc2c(c(O)c1C(c1ccccc1)C1CC1)CCCCCC2CC1CC1 (stereo not shown) ?
Result: 37.1%

Problem: May I ask what inhibition at 0.123 µM has been recorded for CCCC1CCCCc2c1oc(=O)c(C(c1ccccc1)C1CC1)c2O (stereo not shown) ?
Result: 27.3%

Problem: May I ask what inhibition at 0.123 µM has been recorded for CC(C)CC(c1cccc(NS(=O)(=O)c2cccc3cccnc23)c1)c1c(O)c2c(oc1=O)CCCCCC2 (stereo not shown) ?
Result: 86.3%

Reference source: patent US5686486A
